- assay_target: T1, recombinant human CD70 (Flag-TNC-CD70) (human, UniProt P32970 39-193)
- T1 construct: extracellular domain; Captured by anti-Flag mAb in ELISA; as 'recombinant human CD70' immobilised on Biacore CM5 chips; TNC is for trimerisation; also called recombinant CD70; human recombinant CD70; not shown: Flag tag and TNC trimerisation domain
- T1 sequence (looked up): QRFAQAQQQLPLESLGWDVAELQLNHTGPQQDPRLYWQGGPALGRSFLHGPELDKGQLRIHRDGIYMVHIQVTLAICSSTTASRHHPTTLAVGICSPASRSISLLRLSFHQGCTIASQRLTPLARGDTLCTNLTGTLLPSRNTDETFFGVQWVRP
- method_notes: inhibition ELISA: Flag-TNC-CD70 captured by anti-Flag mAb, Fab titrated, remaining binding of CD27-Fc detected
assay_readout: IC50 (read off the curve)

9G2 Fab (Fab, V domains shown, Llama-derived Fab) VH: QVQLVESGGGLMQPGGSLRLSCAASGFTFSSSAMSWVRQAPGKGLEWVSSIYSDSSYTYYADSVKSRFTISTDNAKNTLYLQMNSLKPDDTAVYYCAGSSDYEGSFASWGQGTQVTVSS VL: QSVVTQPPSLSASPGSSVRLTCTLSSGNSVGNYDISWYQQKAGSPPRYLLYYYSDSVKHQGSGVPSRFSGSSDASANAGLLLISGLQPEDEADYYCSAYKSGSHVFGGGTKLTVLG :: ~2 nM
4D2 Fab (Fab, V domains shown, Llama-derived Fab) VH: QVQLQESGPGLVKPSQTLSLACTVSGGSITTSYYYWSWIRQPPGKGLEWMGAIGSRGSTYYSPSLKTRTSISRDTSKNQFTLQLSSVTPEDTAVYYCARVTGEITYNSGSYYYTLNLFDYWGQGTQVTVSS VL: QSVLTQPPSLSASPGSSVRLTCTLSSGNSVGNYDISWYQQKAGSPPRYLLYYYSDSYKNQGSGVPSRFSGSKDPSANAGLLLISGLQAEDEADYYCSVSNSGTYKPVFGGGSKLTVLG :: ~1 nM
5B2 (Fab, V domains shown, also called 5B2 Fab) VH: QVQLVESGGDLVQPGGSLRLSCAASGFTVSNPAMSWVRQAPGKGLEWVSEITNYGYNRYYADSVKGRFTISTDNAKNTLYLQMNSLRSEDSAVYYCTASLGLEYGYGDWGQGTQVTVSS VL: QSALTQPPSVSGTLGKTLTISCAGTSSDVGYGNYVSWYQQLPGTAPKLLIYRVSTRASGMPDRFSGSKSGNTASLTISGLQSEDEADYYCASYTTNNKPVFGGGTHLTVLG :: ~2 nM
24B6 Fab (Fab, V domains shown, Llama-derived Fab) VH: EVQLQESGGGVVQPGGSLRLSCAASGFTFDDYAMSWVRQAPGKGLEWVSSIYMYDSSTYYADSVKGRFTISTDNAKNTVYLQMNSLKSEDTAVYYCAKDINRSYGSSWSHFGPIFSSWGQGTQVTVSS VL: QPVLTQPSAVSVSLGQTARITCQGGYYTHWYQQKPGQAPVLVIYINNNRPSGIPERFSGSISGNTATLTISGAQVEDEADYYCQSGSSSTIPVFGGGTKLTVLG :: ~0.04 µg/mL
